# test-system: SIRT1 (Homo sapiens, UniProt Q96EB6)
# Sequence (Q96EB6 whole entry): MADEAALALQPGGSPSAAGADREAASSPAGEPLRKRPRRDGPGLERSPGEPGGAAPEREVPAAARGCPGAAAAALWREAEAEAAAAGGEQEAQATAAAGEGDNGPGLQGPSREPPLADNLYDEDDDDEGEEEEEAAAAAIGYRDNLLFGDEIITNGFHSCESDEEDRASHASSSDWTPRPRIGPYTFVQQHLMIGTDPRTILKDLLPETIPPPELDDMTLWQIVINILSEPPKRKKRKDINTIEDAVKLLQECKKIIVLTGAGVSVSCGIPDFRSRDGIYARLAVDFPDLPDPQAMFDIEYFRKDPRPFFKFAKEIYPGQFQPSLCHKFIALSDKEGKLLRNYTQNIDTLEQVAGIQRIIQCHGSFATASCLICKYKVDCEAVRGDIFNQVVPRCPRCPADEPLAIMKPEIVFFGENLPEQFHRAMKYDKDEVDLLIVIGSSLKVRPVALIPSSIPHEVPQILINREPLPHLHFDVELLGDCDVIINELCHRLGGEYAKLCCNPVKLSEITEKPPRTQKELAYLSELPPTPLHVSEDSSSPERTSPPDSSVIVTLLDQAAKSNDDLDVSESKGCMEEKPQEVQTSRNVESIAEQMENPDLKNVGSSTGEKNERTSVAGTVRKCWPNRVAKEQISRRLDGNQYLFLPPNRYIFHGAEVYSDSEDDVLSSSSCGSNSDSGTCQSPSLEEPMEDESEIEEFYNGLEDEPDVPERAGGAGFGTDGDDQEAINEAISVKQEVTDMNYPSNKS
# assay-text: TAMRA based mass spectrometry assay of SIRT1 activity
# Type: biochemical
# details: TAMRA assay; concentration giving 150% activation of SIRT1
quantity-measured: TAMRA EC1.5 (μM)

Illustrative cases are given below, each with its answer.
molecule	TAMRA EC1.5 (μM)
O=C(Nc1ccnc(OCC(F)(F)F)c1)c1cnc2ccc(-c3ccccc3C(F)(F)F)nn12 [Compound 296]	B (EC1.5 1-25 μM)
O=C(Nc1cnc2ccc(-c3ccccc3OC(F)(F)F)nn12)c1cnccn1 [Compound 313]	A (EC1.5<1 μM)
O=C(Nc1ccc(F)cn1)c1cnc2ccc(-c3ccccc3OC(F)(F)F)nn12 [Compound 360]	B (EC1.5 1-25 μM)
O=C(Nc1ccnc(O)c1)c1cnn2ccc(-c3ccccc3OC(F)(F)F)nc12 [Compound 779]	A (EC1.5<1 μM)
Cc1nn2ccc(-c3ccccc3C(F)(F)F)nc2c1C(=O)Nc1cncc(F)c1 [Compound 768]	A (EC1.5<1 μM)

Which TAMRA EC1.5 (μM) value is on record for Cc1cc(C)nc(NC(=O)c2cnn3ccc(-c4ccccc4OC(F)(F)F)nc23)n1 [Compound 688] ? B (EC1.5 1-25 μM)

Which TAMRA EC1.5 (μM) value is on record for Cc1cnc(C(=O)Nc2cnn3ccc(-c4ccccc4OC(F)(F)F)nc23)cn1 [Compound 734] ? B (EC1.5 1-25 μM)

Which TAMRA EC1.5 (μM) value is on record for COc1cc(NC(=O)c2cnc3ccc(-c4ccccc4C(F)(F)F)nn23)ncn1 [Compound 197] ? A (EC1.5<1 μM)
